TARGET UNDER TEST: HLA-C*05:01
METHOD SUMMARY: IEDB peptide-MHC binding, purified MHC/direct/fluorescence; filed as Kd, often an IC50 or EC50 that approximates it; bounds were set here for any values at or beyond the usual limits of such assays
CONDITIONS: source organism: Salmonella enterica subsp. enterica serovar Typhi str. CT18
pKd: −log10 of the molar value.
ASSAY READOUT: pKd

Challenge: Kindly indicate its recorded pKd. Item: `WTFTPTTPL`
Response given: ≤ 4.70

* * *

TARGET UNDER TEST: HLA-A*02:01
METHOD SUMMARY: IEDB peptide-MHC binding, purified MHC/direct/fluorescence; filed as Kd, often an IC50 or EC50 that approximates it; bounds were set here for any values at or beyond the usual limits of such assays
CONDITIONS: source organism: Mycobacterium tuberculosis variant bovis
ASSAY READOUT: Kd (nM)
Reply with just the number (in nM).

Challenge: Kindly indicate its recorded Kd. Item: `ALPGPDGVV`
Response given: 553
